Hello, the source for this data is the supplement of paper PMC9170038, in case you need it.

Tested on: K4 kissing-loop RNA reporter;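 note: bound reporter read as fluorescence of individual clusters on recovered sequencing chips by microscopy, with normalized cluster intensities fitted with a binding model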
measurement-notes: apparent KD of K4 kissing-loop reporter; higher = weaker reporter binding
measurement-conditions: Eterna round: R107; input ligand: none
value-kind: apparent KD of K4 kissing-loop reporter (µM)
API: value field is a number in µM; no unit string.

Here's what some known entries look like.
primary-sequence	apparent KD of K4 kissing-loop reporter (µM)
ACUUGCACAAAGUCGUCAACCGGUGAAUCAAAGGAUAUUAAUUCACUAAGAAGGUUGAGCCGAGUGAUGUUCGACUGUAAGUCCC [theeternabot_exclusion_KL_FMN_A_34]	0.551
UGGCGAGUGAUGUUCGUUGUUGUAGUGUGUCGAGGACCGGUACGGCCGCCACUCGAGUUGGUUGUUGUUGUUGCUGUUGUUGCUG [#03 K4 Tryptophan A Same State]	0.181
UAAUCCUAGUGAUAAUAAUCAAGUGGUGGACGAGGACCGGUACGGCCGCCACUCGAAAAUGCAGUGAUGUUGUAAUCCGGAUAAU [Exclusion - Tryptophan A (Freestyle 4)]	0.878
GUAAGAUGAGGAGGAGGAUGAAUUACUGAAGGAGCGCAUAUAAAUGCAGGUAGGUCGCGGUAAAGAAGUAUAGUGAUGUUAUAUA [#20 K4 Arginine A Same State]	0.464
GCGCGUCAUGGCGGCGGUGACUACGCCGAUACCAGCCGGGAAACCGGCCCUUGGCAGCGGCGCGCCGGAGUGAUGUUCCGACAGA [#2 Exclusion - Theophylline A Attempt #4 (HarryS)]	0.275
GACUACCGGGCGGCCGCCACUGGGCUCCGAGUGAUGUUCGGAAAGACUCAUACACUGCUGUCAGACAGGACCGGGCCAAGGCGCA [theeternabot_sameState_KL_Trp_B_5]	0.172
AGCGGCCAGUCGGCCGCCACUCCAGGCAGUGAUGUUGCUAAGUUUCUACUAGAGUGAUGUUCUAAGAGGACCGGGACUGACGUAU [Exclusion Tryptophan B Gf 8]	0.199
UAACCUGUAAACGAUACCAGUUGCAUGGAAACUUGGUACUAGCUAGUGAUGUUAGCAAGCAACCCUUGGCAGCGUCGCCUGACAG [theeternabot_sameState_KL_Theo_B_17]	0.395
CAAACUCUGACGGCCGCCACUAAUCGUGUAACAGUGAUGUUGUUACAUCAAAGAUGGGUUGCGUGUAGGACCGGGUCGACGCAAA [theeternabot_exclusion_KL_Trp_B_48]	0.12
UGGACCAAGGAGUGAUGUUCCAAAUGUGAUACCAGCCACGAAAGUGGCCCUUGGCAGCACUGCCAGGACGAAAACGUCCGGUCCU [#SwitchBubble 12 #StaticStem #K4Early]	0.391

Could you tell me which apparent KD of K4 kissing-loop reporter is on file for CUCGUGGGUUUGAGAGGGCUUGUGGGAAGUGAGGAUAUUUAGGGAGAAAGAAGGCACUAUAGAAUAUAGUGAUGUUAUAUAAGGG [SSFMNA.N] ?
0.2
